Molecular target: purified HLA DRB1*0101 (human)
Assay: competition with 125I-labelled peptide for purified HLA
Below is a list of entries, each paired with its recorded IC50 value.
Number in nM, nothing else.

For orientation, consider the following solved cases.
- YIQMCTELKLSDYEG (modifications not checked) [Flu.NP.43 peptide …]: 320
- SLMLQIGNMISIWVSHS (modifications not checked) [Flu.NA.21 peptide …]: 36

-- ask Look at this binder and give its reported IC50. IYQILSIYSTVASSLA (modifications not checked) [Flu.HA.529 peptide …]
-- reply 55

-- ask Which IC50 value is on record for ILSIYSTVASSLALAI (modifications not checked) [Flu.HA.532 peptide …] ?
-- reply 11
